Origin of values: the RNAGym collection of RNA variant scans (doi:10.1073/pnas.2313332121)

polymerase ribozyme fitness (log ratio) overview
B1: TPR 5TU (parent)
chain: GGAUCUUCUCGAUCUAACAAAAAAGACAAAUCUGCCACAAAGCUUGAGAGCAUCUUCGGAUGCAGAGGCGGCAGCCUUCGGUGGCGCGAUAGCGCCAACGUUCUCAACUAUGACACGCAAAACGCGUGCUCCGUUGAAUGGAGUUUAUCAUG

Variants of: B1
Test: polymerase ribozyme fitness, log enrichment relative to wild type (log ratio); higher = more active; in vitro selection for triplet polymerase activity
Variants at the floor of the assay were thinned out.
Would you mind answering with just the numeric figure?

Reference set (3 entries):
variant_identifier="U109G C125U C129U" reported_value=-4.06
variant_identifier=C105G reported_value=-0.829
variant_identifier="C132G G133U" reported_value=-2.9

Enquiry: Data request, read-out polymerase ribozyme fitness (log ratio), for C54A C75U C93U
Return: -2.29

Enquiry: Which polymerase ribozyme fitness (log ratio) reading was recorded for the variant U6C A22U A26U G84A U144A ?
Return: -4.15

Enquiry: Reported polymerase ribozyme fitness (log ratio) for U13C G50U G59A U82C A121U G136A : what is it?
Return: -1.14

Enquiry: Value lookup for polymerase ribozyme fitness (log ratio); key = U56A U145G
Return: -0.287

Enquiry: Please report the recorded polymerase ribozyme fitness (log ratio) for A91G U144A .
Return: -3.08
